Data provenance: PubChem BioAssay

- experimental.protocol: blockers of RIG-like receptor reporter activation – cell-based, Sendai virus stimulus, luciferase, 10K MLSCN set, TLR/RLR signaling modifier project, primary screen (AID 602276);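 note: firefly luciferase from ISG56 promoter only with Renilla not read in this screen; 0% = Sendai virus plus DMSO and 100% = medium plus DMSO without virus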
- condition.notes: HEK293 RL24 IRF3 luciferase reporter, at 10 µM, stronger effect = higher value
Entry flag: fulfilled if inhibition reaches 10%; not fulfilled if it does not.

Examples from the recorded data:
>  <compound>
COc1cc(C(=O)N2CCCC(c3nc(-c4cccs4)no3)C2)cc(OC)c1OC (stereo unspecified)

>  <class.assignment>
fulfilled

$$$$
>  <compound>
Cc1ccc(C2N(c3ccc(Cl)c(Cl)c3)C(=O)C3CCCN32)o1 (stereo unspecified)

>  <class.assignment>
fulfilled

$$$$
>  <compound>
CC(C)C12CN3CC(C(C)C)(CN(C1)C3c1ccc3c(c1)OCO3)C2=O (stereo unspecified)

>  <class.assignment>
fulfilled

$$$$
>  <compound>
FC(F)(F)c1cc(-c2ccco2)nc(-n2nnc3ccccc32)n1

>  <class.assignment>
fulfilled

$$$$
>  <compound>
COC(=O)c1sccc1NC(=O)c1ccncc1

>  <class.assignment>
fulfilled

$$$$
>  <compound>
O=c1[nH]c2cccnc2n1Cc1ccco1

>  <class.assignment>
not fulfilled

$$$$

Query: Answer whether inhibition of `CN(c1cccc(NC(=O)COc2ccccc2)c1)S(C)(=O)=O` is greater than or equal to 10%.
Result: not fulfilled

Query: Answer whether inhibition of `Cc1sc2nc(SCC(=O)NCc3ccco3)n(CCc3ccccc3)c(=O)c2c1C` is greater than or equal to 10%.
Result: fulfilled

Query: Answer whether inhibition of `COc1ccccc1OCCn1c(=O)sc2ccccc21` is greater than or equal to 10%.
Result: not fulfilled

Query: Answer whether inhibition of `CC(=O)c1cccc(NC(=O)c2ccc(NS(C)(=O)=O)cc2)c1` is greater than or equal to 10%.
Result: fulfilled

Query: Answer whether inhibition of `Cc1cccc(N(C)C(=O)c2coc(=O)c3ccccc23)c1` is greater than or equal to 10%.
Result: fulfilled

====

- assay.system: Voltage-gated potassium channel subunit beta-2 (Rattus norvegicus)
- experimental.protocol: inhibitors of rat Kvbeta2 reductase activity – biochemical, NADPH fluorescence, primary screen (AID 622);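 note: slope of raw intensity against log time taken from 70 to 1610 s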
- condition.notes: recombinant KvBeta, 4-cyanobenzaldehyde reduction, at 10 µM, stronger effect = higher value
param class (str): category from fluorescence slope; see ranges low group: < -0.5; middle group: ≥ -0.5 and < -0.4; high group: ≥ -0.4

Examples from the recorded data:
>  <compound>
CCn1c(=O)cc(SCC(=O)NCC2CCCO2)c2ccccc21 (configuration not stated)

>  <class.assignment>
low group

$$$$
>  <compound>
Cc1cc(C)nc(SCc2nnc(SCc3ccccc3Cl)o2)n1

>  <class.assignment>
middle group

$$$$
>  <compound>
Cc1cc2c(s1)c1cnn(CC(=O)NCCc3ccccc3)c(=O)c1n2C

>  <class.assignment>
high group

$$$$

Query: Could you place `COc1cc(-c2c(C#N)c(N)nc3c2CCCC3)cc(OC)c1OC` in its proper category? Many thanks.
Result: low group

Query: Could you place Cc1ccc(NCc2nnc(SCC(=O)N3CCCCC3)n2CC2CCCO2)c(C)c1 (configuration not stated) in its proper category? Many thanks.
Result: low group

Query: Could you place `Cc1csc(NC(=O)c2sc3nc(-c4cccs4)ccc3c2N)n1` in its proper category? Many thanks.
Result: high group

Query: Could you place `Cc1cc(S(=O)(=O)NC2CCCCC2)ccc1OCC(=O)NCc1ccccn1` in its proper category? Many thanks.
Result: low group

Query: Could you place COc1cccc(C2=NOC(C(=O)Nc3ccc(C(C)=O)cc3)C2)c1 (configuration not stated) in its proper category? Many thanks.
Result: low group

Query: Could you place `CCOC(=O)c1nn(-c2sc(C(=O)OC)c(C)c2C(=O)OC)cc1O` in its proper category? Many thanks.
Result: low group

Query: Could you place `CCNC(=O)Cn1cnc2c1c(=O)n(C)c(=O)n2C` in its proper category? Many thanks.
Result: low group

Query: Could you place `CCOC(=O)CSc1cn2c(n1)CCC2` in its proper category? Many thanks.
Result: low group

Query: Could you place CCCc1[nH]nc2c1C(c1cccc(OC(=O)c3ccco3)c1)C(C#N)=C(N)O2 (configuration not stated) in its proper category? Many thanks.
Result: middle group

Query: Could you place `Nc1nnc(SCC(=O)N2CCc3ccccc32)n1-c1ccccc1` in its proper category? Many thanks.
Result: low group

Query: Could you place `CCOC(=O)c1sc(NC(=O)CSc2nnc(-c3ccco3)n2CC)c(C(=O)OCC)c1C` in its proper category? Many thanks.
Result: low group

Query: Could you place `Nc1nc2c(ncn2COCCO)c(=O)[nH]1` in its proper category? Many thanks.
Result: middle group

====

- experimental.protocol: inhibitors of TNFa-induced NFkB p65 translocation, primary screen, imaging, HUVEC, MLSMR starter and 10KST1 sets (AID 438);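 note: compound added about 3h40 before a 20 min TNFalpha stimulation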
- condition.notes: HUVEC TNFa-induced p65 nuclear translocation; measured here: nuclei count (cytotoxicity indicator), at 2.08 µM
quantity.measured: cell count
Numbers only.

# annotated cases, reported cell count shown
>  <compound>
Cn1c(=O)c(C(=S)NC(=O)C2CC2)c(N)n(Cc2ccccc2)c1=O

>  <cell count>
381

$$$$
>  <compound>
CC(=O)C1=C(O)C(=O)N(Cc2ccco2)C1c1ccc2c(c1)OCO2 (centres undefined)

>  <cell count>
403

$$$$
>  <compound>
CCn1c(C(=O)N2CCCC(C(=O)O)C2)cc2sccc21 (centres undefined)

>  <cell count>
335

$$$$
>  <compound>
CCOC(=O)N1CCC(NC(=O)C2CCCN2C(=O)OCc2ccccc2)CC1 (centres undefined)

>  <cell count>
861

$$$$
>  <compound>
O=C(c1ccccc1)c1ccc2nc[nH]c2c1

>  <cell count>
762

$$$$
>  <compound>
Cc1ccccc1-c1noc(N)c1C#N

>  <cell count>
515

$$$$
>  <compound>
CCOC(=O)c1nn(-c2sc(C(=O)OC)c(C)c2C(=O)OC)cc1O

>  <cell count>
449

$$$$
>  <compound>
COC(=O)c1ccc(-c2ccc(CNCC(O)c3ccccc3)o2)cc1 (centres undefined)

>  <cell count>
400

$$$$

Now consider the entry below.
Field cell count (entry `O=C(Cc1cccs1)Nc1ccccc1C(=O)O` ) reads 365

====

- assay.system: Voltage-gated potassium channel subunit beta-2 (Rattus norvegicus)
- experimental.protocol: inhibitors of rat Kvbeta2 reductase activity – biochemical, NADPH fluorescence, primary screen (AID 622);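 note: slope of raw intensity against log time taken from 70 to 1610 s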
- condition.notes: recombinant KvBeta, 4-cyanobenzaldehyde reduction, at 10 µM
Active and inactive are the calls of the source.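 The calls were made as follows: active = fluorescence slope higher than the sample average by over 3 SD (cut at about -0.22 in these data, passing the limit was not always enough); inactive = the rest.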
Can you answer with just one of these options? active, inactive

>  <compound>
Cc1cc(NC(=O)CSc2ccc(Cl)cc2)no1

>  <class.assignment>
inactive

$$$$
>  <compound>
O=C(Nc1nccs1)c1ccc(Cl)c(S(=O)(=O)N2CCCCC2)c1

>  <class.assignment>
inactive

$$$$
>  <compound>
Cn1c(=O)c2c(ncn2CC(O)CO)n(C)c1=O (centres undefined)

>  <class.assignment>
inactive

$$$$
>  <compound>
CC1CCCC(C(=O)OCc2ccccc2)N1 (centres undefined)

>  <class.assignment>
inactive

$$$$
>  <compound>
Cc1cccn2c(=O)c3cc(C#N)c(=O)n(CCCN4CCOCC4)c3nc12

>  <class.assignment>
inactive

$$$$
>  <compound>
O=C(c1nc2n(n1)C(c1ccc(Cl)cc1)C=C(c1ccccc1)N2)N1CCOCC1 (centres undefined)

>  <class.assignment>
active

$$$$

Query: Could you kindly confirm the outcome this assay logged for COc1ccc(C2NC(c3ccc(OC)c(OC)c3OC)C(C)C(=O)C2C)c(OC)c1OC (centres undefined) ?
Result: inactive

Query: Could you kindly confirm the outcome this assay logged for `COC(=O)c1cc(NS(=O)(=O)c2ccc3c(c2)CCC(=O)N3)cc(C(=O)OC)c1` ?
Result: inactive

Query: Could you kindly confirm the outcome this assay logged for `CC(C)CCn1c(SCC#N)nc2c(sc3ccccc32)c1=O` ?
Result: inactive

Query: Could you kindly confirm the outcome this assay logged for `O=C(CCCCn1c(=O)[nH]c2ccsc2c1=O)NCc1cccnc1` ?
Result: inactive

====

- experimental.protocol: loss of swimming-algae plug formation – whole organism, Chlamydomonas reinhardtii, WT vs cilia-less mutant, absorbance, 96-well, primary screen (AID 463189);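 note: 0% = wild type cc124 cells in DMSO and 100% = ciliumless bld1 mutant cells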
- condition.notes: Chlamydomonas reinhardtii gravitaxis, OD600 absorbance, 2 days; at 10 µM; stronger effect = higher value
Hi there, I'd appreciate the recorded inhibition for every entry that follows.
Give bare numbers, in %.

# annotated cases, reported inhibition shown
>  <molecule>
CC(=O)N1CCN(c2ccc(OC[C@H]3CO[C@](Cn4ccnc4)(c4ccc(Cl)cc4Cl)O3)cc2)CC1

>  <experimental.result>
74.8

$$$$
>  <molecule>
Oc1oc(-c2ccccc2)nc1C=NCc1ccncc1

>  <experimental.result>
-10.3

$$$$
>  <molecule>
C=CC(N)CCC(=O)O (stereo not drawn)

>  <experimental.result>
-6.67

$$$$
>  <molecule>
CCCCCCCC/C=C\CCCCCCCC(=O)NCCO

>  <experimental.result>
-7.05

$$$$
>  <molecule>
Cc1cccc(N2CN=c3s/c(=C\c4ccncc4)c(=O)n3C2)c1

>  <experimental.result>
22.1

$$$$
>  <molecule>
Cn1cnc2c(NC3CCCC3)ncnc21

>  <experimental.result>
0.556

$$$$

Record inhibition for all entries; do not skip any.
1. N=S(=O)(O)Cc1noc2ccccc12
2. CC[C@]1(O)C[C@@H]2CN(CCc3c([nH]c4ccccc34)[C@@](C(=O)OC)(c3cc4c(cc3OC)N(C)[C@H]3[C@@](O)(C(=O)OC)[C@H](OC(C)=O)[C@]5(CC)C=CCN6CC[C@]43[C@@H]65)C2)C1
3. CCc1cccc(N(C)C(N)=Nc2cccc3ccccc23)c1
4. CC/C(=C(\c1ccccc1)c1ccc(OCCN(C)C)cc1)c1ccccc1

Result:
1. 4.33
2. -7.31
3. -1.11
4. 50.3
